test system: Puccinia recondita f. sp. tritici; assay: Test B: wheat leaf rust, preventive spray on wheat seedlings, visual disease rating; conditions: 200 ppm; 100 = 100 % disease control, 0 = no disease control relative to controls
result_type: Test B disease control rating (%)
Write the value in % as a bare number.

Guide cases for Test B disease control rating, answers given:
[[record]]
compound = "Cc1cccc(-c2ccc(C3CC(c4cccnc4)(C(F)(F)F)ON3C)cc2)c1C (racemic) [Compound 31]"
system_name = "Puccinia recondita f. sp. tritici"
reported_measurement = 0

[[record]]
compound = "CN1OC(C)(c2cccnc2)CC1c1ccc(-c2ccccc2)cc1 (racemic) [Compound 12]"
system_name = "Puccinia recondita f. sp. tritici"
reported_measurement = 74

[[record]]
compound = "CN1OC(C)(c2cccnc2)CC1c1ccccc1Br (centres unmarked) [Compound 66]"
system_name = "Puccinia recondita f. sp. tritici"
reported_measurement = 0

[[record]]
compound = "CN1OC(C)(c2cccnc2)CC1c1ccccc1Br (centres unmarked) [Compound 65]"
system_name = "Puccinia recondita f. sp. tritici"
reported_measurement = 0


Next compound, please.
Exercise: Given the entry CN1OC(C)(c2cccnc2)CC1c1cccc(Br)c1 (centres unmarked) [Compound 67] , report its measured Test B disease control rating.
Solution: 0
